Data provenance is the supplement of paper PMC12067926.

# reported relative growth; entries follow
Test system: Sphingomonas 2 (Sphingomonas sp.)
Test: relative growth (AUC of 72 h growth curve relative to DMSO control, dAUC) (ratio); higher = more growth (less inhibition), active = hit call of the paper
Settings: 20 µM
readout name: relative growth

[[record]]
compound = "CO/N=C(/C(=O)OC)c1ccccc1CO/N=C(\\C)c1cccc(C(F)(F)F)c1"
readout_name = "relative growth"
numeric_readout = 1.1

[[record]]
compound = "CCCC(Cn1cncn1)c1ccc(Cl)cc1Cl (stereo not given)"
readout_name = "relative growth"
numeric_readout = 1.03

[[record]]
compound = "CCCCc1c(C)nc(NCC)nc1OS(=O)(=O)N(C)C"
readout_name = "relative growth"
numeric_readout = 0.969

[[record]]
compound = "CCC(=O)Nc1ccc(Cl)c(Cl)c1"
readout_name = "relative growth"
numeric_readout = 0.927

[[record]]
compound = "CNC(=O)/C=C(\\C)OP(=O)(OC)OC"
readout_name = "relative growth"
numeric_readout = 0.926

[[record]]
compound = "CC(C)NC(=O)N1CC(=O)N(c2cc(Cl)cc(Cl)c2)C1=O"
readout_name = "relative growth"
numeric_readout = 0.971

[[record]]
compound = "CC1(C)C(C=C(Cl)Cl)C1C(=O)OCc1cccc(Oc2ccccc2)c1 (stereo not given)"
readout_name = "relative growth"
numeric_readout = 1.02

[[record]]
compound = "CCOc1ccc(C(C)(C)COCc2cccc(Oc3ccccc3)c2)cc1"
readout_name = "relative growth"
numeric_readout = 0.967

[[record]]
compound = "COP(=O)(NC(C)=O)SC (stereo not given)"
readout_name = "relative growth"
numeric_readout = 0.94

[[record]]
compound = "O=[N+]([O-])/N=C1\\NCCN1Cc1ccc(Cl)nc1"
readout_name = "relative growth"
numeric_readout = 0.979

[[record]]
compound = "CN(C)C(CSS(=O)(=O)O)CSS(=O)(=O)O"
readout_name = "relative growth"
numeric_readout = 0.893

[[record]]
compound = "CCC(C)c1ccccc1OC(=O)NC (stereo not given)"
readout_name = "relative growth"
numeric_readout = 1

[[record]]
compound = "CCCCOC(=O)[C@H](C)Oc1ccc(Oc2ccc(C#N)cc2F)cc1"
readout_name = "relative growth"
numeric_readout = 1.1

[[record]]
compound = "C[C@@H]1[C@@H](c2ccc(Cl)cc2)SC(=O)N1C(=O)NC1CCCCC1"
readout_name = "relative growth"
numeric_readout = 0.987

[[record]]
compound = "N#Cc1cc(Br)c(O)c(Br)c1"
readout_name = "relative growth"
numeric_readout = 1.06

[[record]]
compound = "CCC(CC)Nc1c([N+](=O)[O-])cc(C)c(C)c1[N+](=O)[O-]"
readout_name = "relative growth"
numeric_readout = 0.998

[[record]]
compound = "CC1(C)C(C(=O)OC(C#N)c2cccc(Oc3ccccc3)c2)C1(C)C (stereo not given)"
readout_name = "relative growth"
numeric_readout = 0.98

[[record]]
compound = "C[N+]1(C)CCCCC1"
readout_name = "relative growth"
numeric_readout = 0.999

[[record]]
compound = "CCc1cnc(C2=NC(C)(C(C)C)C(=O)N2)c(C(=O)O)c1 (stereo not given)"
readout_name = "relative growth"
numeric_readout = 1.03

[[record]]
compound = "CNC(=O)c1cc(Cl)cc(C)c1NC(=O)c1cc(Br)nn1-c1ncccc1Cl"
readout_name = "relative growth"
numeric_readout = 1.06

[[record]]
compound = "CC[C@H]1CCC[C@H](O[C@H]2CC[C@H](N(C)C)[C@@H](C)O2)[C@@H](C)C(=O)C2=C[C@@H]3[C@@H](C=C(C)[C@@H]4C[C@@H](O[C@@H]5O[C@@H](C)[C@H](OC)[C@@H](OC)[C@H]5OC)C[C@@H]34)[C@@H]2CC(=O)O1.CC[C@H]1CCC[C@H](O[C@H]2CC[C@H](N(C)C)[C@@H](C)O2)[C@@H](C)C(=O)C2=C[C@H]3[C@@H]4C[C@H](O[C@@H]5O[C@@H](C)[C@H](OC)[C@@H](OC)[C@H]5OC)C[C@H]4C=C[C@H]3C2CC(=O)O1"
readout_name = "relative growth"
numeric_readout = 1

[[record]]
compound = "CC1(C(=O)Nc2ccc(O)c(Cl)c2Cl)CCCCC1"
readout_name = "relative growth"
numeric_readout = 0.967

[[record]]
compound = "CCc1cccc(C)c1N(C(=O)CCl)[C@@H](C)COC"
readout_name = "relative growth"
numeric_readout = 0.791

[[record]]
compound = "Cc1nc(N(C)C)nc(OC(=O)N(C)C)c1C"
readout_name = "relative growth"
numeric_readout = 0.968

[[record]]
compound = "CS(=O)(=O)c1cc(C(F)(F)F)ccc1C(=O)c1cnoc1C1CC1"
readout_name = "relative growth"
numeric_readout = 1.11


###

System: Hymenobacter 1 (Hymenobacter glaciei)
Assay: relative growth (AUC of 72 h growth curve relative to DMSO control, dAUC) (ratio); higher = more growth (less inhibition), active = hit call of the paper
Settings: 20 µM
A collection of compounds and their measured relative growth
readout name: relative growth

[[record]]
compound = "C/C(=N\\C#N)N(C)Cc1ccc(Cl)nc1"
numeric_readout = 0.997

[[record]]
compound = "Clc1ccc(C(c2ccc(Cl)cc2)C(Cl)(Cl)Cl)cc1"
numeric_readout = 0.976

[[record]]
compound = "COP(=O)(NC(C)=O)SC (stereo unspecified)"
numeric_readout = 1

[[record]]
compound = "CCOCn1c(-c2ccc(Cl)cc2)c(C#N)c(Br)c1C(F)(F)F"
numeric_readout = 0.993

[[record]]
compound = "ClC1C(Cl)C(Cl)C(Cl)C(Cl)C1Cl (stereo unspecified)"
numeric_readout = 0.999

[[record]]
compound = "O=C(NCCc1ncc(C(F)(F)F)cc1Cl)c1ccccc1C(F)(F)F"
numeric_readout = 0.995


###

System: Neobacillus 1 (Neobacillus soli)
Experiment: relative growth (AUC of 72 h growth curve relative to DMSO control, dAUC) (ratio); higher = more growth (less inhibition), active = hit call of the paper
Settings: 20 µM
readout name: relative growth

[[record]]
compound = "Fc1ccc([C@]2(Cn3cncn3)O[C@H]2c2ccccc2Cl)cc1 (racemic)"
target_under_test = "Neobacillus 1 (Neobacillus soli)"
readout_name = "relative growth"
result = "0.963 (inactive)"

[[record]]
compound = "CCOP(=S)(OCC)Oc1nc(Cl)c(Cl)cc1Cl"
target_under_test = "Neobacillus 1 (Neobacillus soli)"
readout_name = "relative growth"
result = "1.07 (inactive)"

[[record]]
compound = "N#Cc1sc2c(=O)c3ccccc3c(=O)c=2sc1C#N"
target_under_test = "Neobacillus 1 (Neobacillus soli)"
readout_name = "relative growth"
result = "1 (inactive)"

[[record]]
compound = "CO/N=C(/C(=O)OC)c1ccccc1CO/N=C(\\C)c1cccc(C(F)(F)F)c1"
target_under_test = "Neobacillus 1 (Neobacillus soli)"
readout_name = "relative growth"
result = "1 (inactive)"

[[record]]
compound = "COCC(C)N(C(=O)CCl)c1c(C)csc1C (configuration not stated)"
target_under_test = "Neobacillus 1 (Neobacillus soli)"
readout_name = "relative growth"
result = "0.98 (inactive)"

[[record]]
compound = "CCOC(=O)CC(SP(=S)(OC)OC)C(=O)OCC (configuration not stated)"
target_under_test = "Neobacillus 1 (Neobacillus soli)"
readout_name = "relative growth"
result = "1.06 (inactive)"

[[record]]
compound = "CC(C)N(C)S(=O)(=O)NC(=O)c1cc(-n2c(=O)cc(C(F)(F)F)n(C)c2=O)c(F)cc1Cl"
target_under_test = "Neobacillus 1 (Neobacillus soli)"
readout_name = "relative growth"
result = "0.98 (inactive)"

[[record]]
compound = "N#Cc1nn(-c2c(Cl)cc(C(F)(F)F)cc2Cl)c(N)c1[S+]([O-])C(F)(F)F (configuration not stated)"
target_under_test = "Neobacillus 1 (Neobacillus soli)"
readout_name = "relative growth"
result = "0.993 (inactive)"

[[record]]
compound = "ClC1C(Cl)C(Cl)C(Cl)C(Cl)C1Cl (configuration not stated)"
target_under_test = "Neobacillus 1 (Neobacillus soli)"
readout_name = "relative growth"
result = "0.941 (inactive)"

[[record]]
compound = "C[N+](C)(C)CCCl"
target_under_test = "Neobacillus 1 (Neobacillus soli)"
readout_name = "relative growth"
result = "0.993 (inactive)"

[[record]]
compound = "CCCCN(CCCC)SN(C)C(=O)Oc1cccc2c1OC(C)(C)C2"
target_under_test = "Neobacillus 1 (Neobacillus soli)"
readout_name = "relative growth"
result = "0.952 (inactive)"

[[record]]
compound = "COC(=O)Nc1nc2ccccc2[nH]1"
target_under_test = "Neobacillus 1 (Neobacillus soli)"
readout_name = "relative growth"
result = "1.13 (inactive)"

[[record]]
compound = "CCOc1ccc(C(C)(C)COCc2cccc(Oc3ccccc3)c2)cc1"
target_under_test = "Neobacillus 1 (Neobacillus soli)"
readout_name = "relative growth"
result = "0.881 (inactive)"

[[record]]
compound = "OC(Cn1cncn1)(c1ccc(F)cc1)c1ccccc1F (configuration not stated)"
target_under_test = "Neobacillus 1 (Neobacillus soli)"
readout_name = "relative growth"
result = "1.08 (inactive)"

[[record]]
compound = "CNC(=O)c1cc(Cl)cc(C)c1NC(=O)c1cc(Br)nn1-c1ncccc1Cl"
target_under_test = "Neobacillus 1 (Neobacillus soli)"
readout_name = "relative growth"
result = "1.04 (inactive)"

[[record]]
compound = "COc1cccc(C(=O)NN(C(=O)c2cc(C)cc(C)c2)C(C)(C)C)c1C"
target_under_test = "Neobacillus 1 (Neobacillus soli)"
readout_name = "relative growth"
result = "0.914 (inactive)"

[[record]]
compound = "C[N+]1(C)CCCCC1"
target_under_test = "Neobacillus 1 (Neobacillus soli)"
readout_name = "relative growth"
result = "1 (inactive)"

[[record]]
compound = "CNC(=O)Oc1cccc2ccccc12"
target_under_test = "Neobacillus 1 (Neobacillus soli)"
readout_name = "relative growth"
result = "1.04 (inactive)"

[[record]]
compound = "CNC(=O)CSP(=S)(OC)OC"
target_under_test = "Neobacillus 1 (Neobacillus soli)"
readout_name = "relative growth"
result = "0.948 (inactive)"

[[record]]
compound = "N#CC(CCc1ccc(Cl)cc1)(Cn1cncn1)c1ccccc1 (configuration not stated)"
target_under_test = "Neobacillus 1 (Neobacillus soli)"
readout_name = "relative growth"
result = "0.905 (inactive)"

[[record]]
compound = "O=C(NCCc1ncc(C(F)(F)F)cc1Cl)c1ccccc1C(F)(F)F"
target_under_test = "Neobacillus 1 (Neobacillus soli)"
readout_name = "relative growth"
result = "0.981 (inactive)"

[[record]]
compound = "COP(N)(=O)SC (configuration not stated)"
target_under_test = "Neobacillus 1 (Neobacillus soli)"
readout_name = "relative growth"
result = "0.856 (inactive)"

[[record]]
compound = "O=C(O)CNCP(=O)(O)O"
target_under_test = "Neobacillus 1 (Neobacillus soli)"
readout_name = "relative growth"
result = "1.04 (inactive)"

[[record]]
compound = "COP(=S)(OC)SCN1C(=O)c2ccccc2C1=O"
target_under_test = "Neobacillus 1 (Neobacillus soli)"
readout_name = "relative growth"
result = "1.03 (inactive)"

[[record]]
compound = "CC(C)N1C(=O)c2ccccc2NS1(=O)=O"
target_under_test = "Neobacillus 1 (Neobacillus soli)"
readout_name = "relative growth"
result = "1.04 (inactive)"

[[record]]
compound = "Cc1c(COC(=O)[C@@H]2[C@H](/C=C(\\Cl)C(F)(F)F)C2(C)C)cccc1-c1ccccc1 (racemic)"
target_under_test = "Neobacillus 1 (Neobacillus soli)"
readout_name = "relative growth"
result = "0.943 (inactive)"

[[record]]
compound = "CCOCN(C(=O)CCl)c1c(C)cccc1CC"
target_under_test = "Neobacillus 1 (Neobacillus soli)"
readout_name = "relative growth"
result = "0.667 (active)"

